The molecules listed here are annotated with their growth.
- Tested on: COLO 205 colon
- ASSAY COMMENT: NCI-60 one-dose screen, 48 h (100 = growth as untreated, 0 = no growth, -100 = all killed)
- RUN CONDITIONS: 10 µM
This is part of a sample that, as a whole, favours compounds with a hit. Of some 83,000 tested, about 20% had one in any assay. The source made the active and inactive calls. The calls were made as follows: active = growth percent below 10; inactive = the rest.

Some entries whose results are on file:
>  <COMPOUND>
Clc1ccc(Nc2ccnc(NCCNc3ccnc4cc(Cl)ccc34)n2)cc1

>  <ASSAY VALUE>
-91% (active)

$$$$
>  <COMPOUND>
Clc1nc(Cl)c2c(ncn2C/C=C\Cn2cnc3c(Cl)nc(Cl)nc32)n1

>  <ASSAY VALUE>
-51.5% (active)

$$$$
>  <COMPOUND>
COc1ccc(/C=C2/CN(CCC#N)C/C(=C\c3ccc(OC)cc3)C2=O)cc1

>  <ASSAY VALUE>
-52.3% (active)

$$$$

Which growth is listed for O=C(Nc1ccc(Cl)c([N+](=O)[O-])c1)Nc1nc2ccccc2s1 ?
108% (inactive)

Same question for COc1ccc2c(c1)sc1nc(-c3ccccc3)c(-c3cccnc3)n12 please.
128% (inactive)

Same question for NC(=S)N=Nc1c(O)c2ccccc2c2ccccc12 please.
92.3% (inactive)

Same question for N=c1c2c(-c3ccccc3)c(-c3ccccc3)n(Cc3ccccc3)c2ncn1CCCO please.
-5.84% (active)

Same question for Nc1nc(N)c(NC(=O)CNc2ccc(C(=O)O)cc2)c(N)n1 please.
110% (inactive)

Same question for CN(C)CCN1C(=O)c2cccc3cc(N)cc(c23)C1=O please.
26.2% (inactive)

Same question for COc1cc(-c2cc(/C=C/C(=O)c3ccc4c(c3)OCO4)[nH]n2)cc(OC)c1OC please.
100% (inactive)
